Reported koff values for the following binders.
assayed system: ACE2 (human, UniProt Q9BYF1 18-740)
Sequence (Q9BYF1 18-740 limits assumed): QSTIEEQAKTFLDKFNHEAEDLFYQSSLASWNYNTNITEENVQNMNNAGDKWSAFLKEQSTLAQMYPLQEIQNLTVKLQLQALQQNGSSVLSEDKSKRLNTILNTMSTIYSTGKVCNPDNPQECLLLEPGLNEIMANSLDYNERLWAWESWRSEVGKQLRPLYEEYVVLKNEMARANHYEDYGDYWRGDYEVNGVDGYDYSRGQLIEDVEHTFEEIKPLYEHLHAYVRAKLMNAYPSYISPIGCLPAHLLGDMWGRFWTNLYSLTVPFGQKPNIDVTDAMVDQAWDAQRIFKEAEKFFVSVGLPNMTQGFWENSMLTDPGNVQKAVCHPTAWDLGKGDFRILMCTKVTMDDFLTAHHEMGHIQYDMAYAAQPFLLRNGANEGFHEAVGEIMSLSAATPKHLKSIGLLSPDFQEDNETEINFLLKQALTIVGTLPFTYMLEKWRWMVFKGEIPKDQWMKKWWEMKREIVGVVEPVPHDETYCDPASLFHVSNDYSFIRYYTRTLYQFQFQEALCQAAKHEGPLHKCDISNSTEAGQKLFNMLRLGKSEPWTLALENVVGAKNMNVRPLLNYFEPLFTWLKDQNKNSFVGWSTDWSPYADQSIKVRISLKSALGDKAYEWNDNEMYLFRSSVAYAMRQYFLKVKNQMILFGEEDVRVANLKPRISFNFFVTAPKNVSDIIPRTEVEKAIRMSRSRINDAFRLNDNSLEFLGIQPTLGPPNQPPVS
Reply with just the number (in s⁻¹).

Sample answers from the record:
{"columns": ["binder", "koff / s⁻¹"],
 "data": [
  ["ACE2 variant antibody 4-89 (VHH) VHH: EVQLVESGGGLVQPGGSLRLSCAASGFAFGDNWIGWFRQAPGKEREWVASISSGGTTAYADNVKGRFTIIADNSKNTAYLQMNSLKPEDTAVYYCAHRGGWLRPWGYWGQGTLVTVSS", 0.000611],
  ["ACE2 variant antibody 4-52 (VHH) VHH: EVQLVESGGGLVQPGGSLRLSCAASGRSFSNSVMGWFRQAPGKEREFVARITWNGGSTYYADSVKGRFTISADNSKNTAYLQMNSLKPEDTAVYYCATTENPNPRWGQGTLVTVSS", 0.00149]
]}

Next item in the queue.
Data point: ACE2 variant antibody 3-8 (antibody, V domains shown) VH: EVQLLESGGGLVQPGGSLRLSCAASGFTFRSHAMSWVRQAPGKGLEWVSSISGGGASTYYADSVKGRFTISRDNSKNTLYLQMNSLRAEDTAVYYCARVKYLTTSSGWPRPYFDNWGQGTLVTVSS VL: DIQMTQSPSSLSASVGDRVTITCRASQSIGKYLNWYQQKPGKAPKLLIYASSTLQRGVPSRFSGSGSGTDFTLTISSLQPEDFATYYCQQSLSTPFTFGQGTKVEIK ; koff = 0.00509
